Molecular target: human CB1 receptors (Homo sapiens (Human), UniProt P21554)
Sequence (P21554 whole entry): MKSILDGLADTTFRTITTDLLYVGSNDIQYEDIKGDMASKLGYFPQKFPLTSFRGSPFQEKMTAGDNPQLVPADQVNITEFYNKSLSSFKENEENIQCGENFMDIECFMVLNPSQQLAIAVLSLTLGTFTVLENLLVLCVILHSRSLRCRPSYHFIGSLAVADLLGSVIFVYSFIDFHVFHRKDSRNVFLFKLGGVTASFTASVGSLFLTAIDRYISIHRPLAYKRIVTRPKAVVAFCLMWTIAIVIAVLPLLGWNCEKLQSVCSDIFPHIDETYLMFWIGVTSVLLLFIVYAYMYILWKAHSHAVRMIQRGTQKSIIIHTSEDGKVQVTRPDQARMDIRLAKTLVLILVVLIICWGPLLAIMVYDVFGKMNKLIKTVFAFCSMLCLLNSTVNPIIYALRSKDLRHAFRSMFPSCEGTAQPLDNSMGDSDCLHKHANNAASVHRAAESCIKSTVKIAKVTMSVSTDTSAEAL
Experiment: functional cAMP assay, CHO cells expressing human CB1
Type: cell-based
Conditions: functional cAMP assay, CHO cells expressing human CB1; read-out: Human CB1 EC50
Protocol: CHO cells expressing human CB1 or CB2 receptors are seeded 17-24 hours prior to the experiment 50.000 cells per well in a black 96 well plate with flat clear bottom (Corning Costar #3904) in DMEM (Invitrogen No. 31331), 1×HT supplement, with 10% fetal calf serum and incubated at 5% CO2 and 37° C. in a humidified incubator. […] The time-resolved energy transfer is measured by a TRF reader (Evotec Technologies GmbH), equipped with a ND:YAG laser as excitation source. […]
Quantity kind: EC50

INSERT INTO results (compound, target_desc, assay_result) VALUES
  ('NC(=O)CC1(NC(=O)c2cc(OCC(F)(F)F)c(N3CC(F)(F)C3)cn2)COC1', 'human CB1 receptors (Homo sapiens (Human), UniProt P21554)', '> 10 µM'),
  ('O=C(c1cc(OCC(F)(F)F)c(C2CC2)cn1)N1CC(F)(F)C1', 'human CB1 receptors (Homo sapiens (Human), UniProt P21554)', '> 10 µM'),
  ('O=C(NC1(c2nccs2)COC1)c1cc(OCC2CC2)c(C2CC2)cn1', 'human CB1 receptors (Homo sapiens (Human), UniProt P21554)', '> 10 µM'),
  ('Cc1nc(C(C)(CC2CC2)NC(=O)c2cc(OCC(F)(F)F)c(C3CCC3)cn2)no1 (stereo not shown)', 'human CB1 receptors (Homo sapiens (Human), UniProt P21554)', '0.79 µM');

* * *

Measured EC50, listed per entry.
molecular target: human CB2 receptors (Homo sapiens (Human), UniProt P34972); test: functional cAMP assay, CHO cells expressing human CB2; format: cell-based; conditions: read-out: Human CB2 EC50
Sequence (P34972 whole entry): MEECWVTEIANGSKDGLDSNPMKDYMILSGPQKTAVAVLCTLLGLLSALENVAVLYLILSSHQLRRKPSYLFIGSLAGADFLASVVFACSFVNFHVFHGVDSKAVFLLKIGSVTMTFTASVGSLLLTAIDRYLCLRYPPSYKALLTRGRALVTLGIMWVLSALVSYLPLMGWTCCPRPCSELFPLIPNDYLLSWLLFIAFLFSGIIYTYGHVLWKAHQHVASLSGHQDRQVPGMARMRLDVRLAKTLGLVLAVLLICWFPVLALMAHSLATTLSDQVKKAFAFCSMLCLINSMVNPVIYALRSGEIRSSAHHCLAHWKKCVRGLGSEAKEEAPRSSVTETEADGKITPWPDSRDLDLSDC
Quantity kind: EC50 (nM)

INSERT INTO results (molecule, assay_result) VALUES
  ('Cc1nc(C(C)(NC(=O)c2cc(OCC3CC3)c(C3CC3)cn2)C2CC2)no1 (centres unmarked)', 0.7),
  ('Cc1nnc(C(NC(=O)c2cc(O[C@@H](C)C(F)(F)F)c(C3CC3)cn2)C2(C)COC2)o1 (some centres unmarked)', 186),
  ('CCN(C(=O)c1cc(OCC2CC2)c(C2CC2)cn1)C(C)(C)C', 9.5),
  ('O=C(c1cc(OCC(F)(F)F)c(C2CC2)cn1)N1CC(F)(F)C1', 167),
  ('CC(C)(C)C(NC(=O)c1cc(OCC(F)(F)F)c(C2CC2)cn1)c1nccs1 (centres unmarked)', 5.8),
  ('CC(C)[C@H](CO)NC(=O)c1cc(OCC2CC2)c(Cl)cn1', 55.4),
  ('Cc1nc(C(C)(CC2CC2)NC(=O)c2cc(O[C@@H](C)C(F)(F)F)c(C3(F)COC3)cn2)no1 (some centres unmarked) [Example 171]', 14.9),
  ('C[C@H](Oc1cc(C(=O)NC(C(N)=O)C2(C)COC2)ncc1C1CC1)C(F)(F)F (some centres unmarked)', 8.9);

* * *

Measured EC50, listed per entry.
target: UniProt P34972; assay: functional cAMP assay, CHO cells expressing human CB2; type: cell-based; conditions: Human CB2 EC50 (uM)
Quantity kind: EC50 (µM)

INSERT INTO assay_data (molecule, unit_text, assay_result) VALUES
  ('CC(CF)Oc1cc(C(=O)NC2(CC(N)=O)CS(=O)(=O)C2)ncc1C1CC1 (single isomer, unassigned) [Example 291]', 'µM', 0.0003),
  ('CC1(C(NC(=O)c2cc(OCC(F)(F)F)c(C3CC3)cn2)C(N)=O)COC1 (single isomer, unassigned) [Example 268]', 'µM', 0.225),
  ('Cc1nc([C@](C)(CC2CC2)NC(=O)c2cc(OCC(F)(F)F)c(N3CC(F)(F)C3)cn2)no1 (single isomer, unassigned) [Example 92]', 'µM', 0.0214);

Data origin: patent US9409866B2
